Where do these numbers come from? They come from paper PMC12118597.

Listed molecules paired with reported pIC50
# Measured target: SARS-CoV-2 NSP3 macrodomain (Mac1) (Severe acute respiratory syndrome coronavirus 2, UniProt P0DTD1)
# Test summary: biochemical
# Type: binding
# Condition description: read-out: IC50
pIC50: −log10 of the molar value.

Example entries begin here.
INSERT INTO measurements (molecule, value_measured) VALUES
  ('Nc1ncnc(N2CCCCC3(CCC3)C2)c1Cl', '< 3.00'),
  ('CC(O)C1CCN(c2cc(N3CCC(c4ccccc4)CC3C)ncn2)C1 (stereo not drawn)', '< 3.00');

Below: the item to evaluate.
Q: Using the record for Nc1cccc(CSC2CCc3ccccc32)n1 (stereo not drawn) , state its measured pIC50.
Result: < 3.00

###

# Measured target: SARS-CoV-2 NSP3 macrodomain (Mac1) (Severe acute respiratory syndrome coronavirus 2, UniProt P0DTD1)
# Test summary: biochemical
# Type: binding
# Condition description: SARS CoV-2 macrodomain HTRF assay
One threshold, 0.3, splits the recorded Ligand efficiency (binding enery per heavy atom) values: lower ones are MET, equal or higher ones are NOT MET.

Record excerpt, results attached:
INSERT INTO assay_data (compound, discrete_label) VALUES
  ('Cc1c[nH]c2ncnc(NCC3(O)CCSCC3)c12', 'NOT MET'),
  ('C[C@@H]1CCN(c2ncnc3[nH]ccc23)[C@H](CO)C1', 'NOT MET');

# next compound below
Q: Below 0.3 on Ligand efficiency (binding enery per heavy atom)? Entry "OC1(CNc2ncnc3[nH]ccc23)CCC(F)(F)CC1"
Result: MET

###

# Measured target: SARS-CoV-2 NSP3 macrodomain (Mac1) (Severe acute respiratory syndrome coronavirus 2)
# Assay type: binding
# Condition description: crystal soak 10 mM; TFA/DMSO background map
Measured attribute: PanDDA run, TFA/DMSO background map: 1-BDC
The response must contain the number and no unit.

Example entries begin here.
INSERT INTO measurements (compound, measured_target, value_measured) VALUES
  ('OCC(CC1CCOC1)Nc1ncnc2[nH]ccc12 (stereo not shown)', 'SARS-CoV-2 NSP3 macrodomain (Mac1) (Severe acute respiratory syndrome coronavirus 2)', 0.15),
  ('CC1CCN(c2ncnc3[nH]ccc23)C1CO (stereo not shown)', 'SARS-CoV-2 NSP3 macrodomain (Mac1) (Severe acute respiratory syndrome coronavirus 2)', 0.18);

Q: Using the record for OC(c1ccccc1)C1CCCN1c1ncnc2[nH]ccc12 (stereo not shown) , state its measured PanDDA run, TFA/DMSO background map: 1-BDC.
Result: 0.16

Q: Using the record for OCC(Nc1ncnc2[nH]ccc12)c1ccco1 (stereo not shown) , state its measured PanDDA run, TFA/DMSO background map: 1-BDC.
Result: 0.08

Q: Using the record for OC1CCN(c2ncnc3[nH]ccc23)C1 (stereo not shown) , state its measured PanDDA run, TFA/DMSO background map: 1-BDC.
Result: 0.12

Q: Using the record for OCC(Nc1ncnc2[nH]ccc12)c1ccccc1 (stereo not shown) , state its measured PanDDA run, TFA/DMSO background map: 1-BDC.
Result: 0.09

Q: Using the record for OCC(Cc1cccs1)Nc1ncnc2[nH]ccc12 (stereo not shown) , state its measured PanDDA run, TFA/DMSO background map: 1-BDC.
Result: 0.16

Q: Using the record for "O=C(O)C(F)(F)F.OC[C@H]1CC2(CN1c1ncnc3[nH]ccc13)OCCO2" , state its measured PanDDA run, TFA/DMSO background map: 1-BDC.
Result: 0.13

Q: Using the record for OCC(Cc1ccoc1)Nc1ncnc2[nH]ccc12 (stereo not shown) , state its measured PanDDA run, TFA/DMSO background map: 1-BDC.
Result: 0.14

Q: Using the record for OCC(CC1CCCO1)Nc1ncnc2[nH]ccc12 (stereo not shown) , state its measured PanDDA run, TFA/DMSO background map: 1-BDC.
Result: 0.17

Q: Using the record for "O=C(O)C(F)(F)F.OCC1(Nc2ncnc3[nH]ccc23)CCCC1" , state its measured PanDDA run, TFA/DMSO background map: 1-BDC.
Result: 0.11

Q: Using the record for "O=C(O)C(F)(F)F.O[C@H]1CCC[C@@H]1Nc1ncnc2[nH]ccc12" , state its measured PanDDA run, TFA/DMSO background map: 1-BDC.
Result: 0.09

Q: Using the record for CC(c1ccccc1)C(CO)Nc1ncnc2[nH]ccc12 (stereo not shown) , state its measured PanDDA run, TFA/DMSO background map: 1-BDC.
Result: 0.09

Q: Using the record for OCC(CN1CCCCC1)Nc1ncnc2[nH]ccc12 (stereo not shown) , state its measured PanDDA run, TFA/DMSO background map: 1-BDC.
Result: 0.18

Q: Using the record for OCC(Nc1ncnc2[nH]ccc12)C1CCCC1 (stereo not shown) , state its measured PanDDA run, TFA/DMSO background map: 1-BDC.
Result: 0.11

Q: Using the record for OCC(CC(O)c1ccccc1)Nc1ncnc2[nH]ccc12 (stereo not shown) , state its measured PanDDA run, TFA/DMSO background map: 1-BDC.
Result: 0.17

Q: Using the record for C#CCC(CO)Nc1ncnc2[nH]ccc12 (stereo not shown) , state its measured PanDDA run, TFA/DMSO background map: 1-BDC.
Result: 0.11
